Items are presented alongside their recorded DC50.
SYSTEM_TESTED: BRAF V600E (Homo sapiens, UniProt P15056, V600E)
Construct: expressed in transfected cells
Sequence (P15056 whole entry V600E): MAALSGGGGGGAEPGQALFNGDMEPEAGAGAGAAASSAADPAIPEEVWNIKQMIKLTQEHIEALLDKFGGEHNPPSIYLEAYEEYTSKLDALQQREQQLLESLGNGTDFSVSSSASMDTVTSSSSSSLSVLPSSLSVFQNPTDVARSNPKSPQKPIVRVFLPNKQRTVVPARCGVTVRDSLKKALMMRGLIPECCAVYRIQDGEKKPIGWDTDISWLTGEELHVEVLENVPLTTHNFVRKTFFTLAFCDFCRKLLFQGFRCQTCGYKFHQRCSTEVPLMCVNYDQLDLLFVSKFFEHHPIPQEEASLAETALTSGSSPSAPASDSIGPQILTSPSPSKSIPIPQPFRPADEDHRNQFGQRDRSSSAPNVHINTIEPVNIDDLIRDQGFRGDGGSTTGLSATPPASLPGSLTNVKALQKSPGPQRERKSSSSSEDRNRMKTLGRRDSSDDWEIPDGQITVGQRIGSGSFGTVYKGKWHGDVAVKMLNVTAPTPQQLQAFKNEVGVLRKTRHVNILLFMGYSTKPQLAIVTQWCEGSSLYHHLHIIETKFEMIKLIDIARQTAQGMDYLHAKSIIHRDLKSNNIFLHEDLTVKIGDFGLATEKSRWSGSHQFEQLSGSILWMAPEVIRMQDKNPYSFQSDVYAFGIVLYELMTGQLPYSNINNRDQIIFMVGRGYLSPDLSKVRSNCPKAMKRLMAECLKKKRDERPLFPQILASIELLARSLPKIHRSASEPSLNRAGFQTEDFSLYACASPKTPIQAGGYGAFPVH
PROTOCOL: Cellular assay of target protein degradation, T-Rex 293 cells stably transfected with HA-BRAF_V600E (HA immunofluorescence, high content imaging)
Format: cell-based
MEASUREMENT_PARAMETERS: half maximal degradation, T-Rex 293 HA-BRAF V600E; read-out: BRaf V600E DC50

Challenge: If you can, please state the reported DC50 value of O=C1CC[C@@H](N2Cc3cc(N4CC(CN5CCN(C6(c7ncc(-c8cnc9[nH]cc(C(=O)c%10c(F)ccc(NS(=O)(=O)N%11CC[C@@H](F)C%11)c%10F)c9c8)cn7)CC6)CC5)C4)ccc3C2=O)C(=O)N1 .
Response given: 50 to 500 nM

Challenge: Record request: DC50 value, item CCCS(=O)(=O)Nc1ccc(F)c(C(=O)c2c[nH]c3ncc(-c4ccc(N5CCC(CN6CC7(C6)CN(c6ccc8c(c6)CN([C@@H]6CCC(=O)NC6=O)C8=O)C7)CC5)cc4)cc23)c1F
Response given: 5 to 50 nM

Challenge: Entry O=C1CCC(N2Cc3cc(N4CC5(CC(Oc6ccc(-c7cnc8[nH]cc(C(=O)c9c(F)ccc(NS(=O)(=O)N%10CC[C@@H](F)C%10)c9F)c8c7)cc6)C5)C4)ccc3C2=O)C(=O)N1 (some centres unmarked) : reported DC50 = ?
Response given: 5 to 50 nM

Challenge: Any idea what its DC50 is? The compound is O=C1CCC(N2Cc3cc(C4CCN(C[C@H]5CCN(c6ccc(-c7cnc8[nH]cc(C(=O)c9c(F)ccc(NS(=O)(=O)N%10CC[C@@H](F)C%10)c9F)c8c7)cc6)C[C@H]5F)CC4)ccc3C2=O)C(=O)N1 (some centres unmarked)
Response given: 5 to 50 nM

Challenge: Entry under review: O=C1CCC(N2Cc3cc(C4CCN(CC5CN(c6ccc(-c7cnc8[nH]cc(C(=O)c9c(F)ccc(NS(=O)(=O)N%10CC[C@@H](F)C%10)c9F)c8c7)cc6)C5)CC4)ccc3C2=O)C(=O)N1 (some centres unmarked) . Reported DC50?
Response given: 5 to 50 nM

* * *

SYSTEM_TESTED: BRAF G466V (Homo sapiens, UniProt P15056, G466V)
Construct: expressed in transfected cells
Sequence (P15056 whole entry G466V): as the sequence (P15056 whole entry V600E) above, with G466V, E600V counted along it
PROTOCOL: Cellular assay of target protein degradation, T-Rex 293 cells stably transfected with HA-BRAF G466V (HA immunofluorescence, high content imaging)
Type: cell-based
MEASUREMENT_PARAMETERS: half maximal degradation, T-Rex 293 HA-BRAF G466V; read-out: BRaf G466V DC50
MEASURED_ENDPOINT: DC50

Example entries begin here.
{"columns": ["COMPOUND", "RESULT"],
 "data": [
  ["O=C1CC[C@H](NC(=O)c2ccc(N3CCN(CCc4ccc(-c5cnc6[nH]cc(C(=O)c7c(F)ccc(NS(=O)(=O)N8CC[C@@H](F)C8)c7F)c6c5)cc4)CC3)cc2F)C(=O)N1", "1 to 10 nM"],
  ["O=C1CC[C@@H](N2Cc3cc(N4CCC(CN5CC6(C5)CN(c5ccc(-c7cnc8[nH]cc(C(=O)c9c(F)ccc(NS(=O)(=O)N%10CC[C@@H](F)C%10)c9F)c8c7)cc5)C6)CC4)c(F)cc3C2=O)C(=O)N1", "< 1 nM"],
  ["O=C1CCC(N2Cc3cc(C4CCN(CCCc5ccc(-c6cnc7[nH]cc(C(=O)c8c(F)ccc(NS(=O)(=O)N9CC[C@@H](F)C9)c8F)c7c6)cc5)CC4)ccc3C2=O)C(=O)N1 (some centres unmarked)", "< 1 nM"],
  ["O=C1CC[C@H](N2Cc3cc(CN4C[C@@H]5CN(c6ccc(-c7cnc8[nH]cc(C(=O)c9c(F)ccc(NS(=O)(=O)N%10CC[C@@H](F)C%10)c9F)c8c7)cc6)C[C@@H]5C4)ccc3C2=O)C(=O)N1", "> 30 nM"]
]}

Alright, here's another compound for you.
Challenge: Name the recorded DC50 for COc1cc(N2CCC(CN3CCN(c4ccc(-c5cnc6[nH]cc(C(=O)c7c(F)ccc(NS(=O)(=O)N8CC[C@@H](F)C8)c7F)c6c5)cc4)CC3)CC2)ccc1C(=O)N[C@H]1CCC(=O)NC1=O .
Response given: 1 to 10 nM
